# protocol summary: chemical genetic growth profiling, strain panel (AID 1159580);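 further: tested at 20 µM; growth read once vehicle control cultures reached saturation at 30 °C; 1 = growth at the plate median or of vehicle wells; lower values mean less growth of the strain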
# protocol conditions: S. cerevisiae deletion strains, growth OD, locus YLR357W, strain rsc2, active compounds read low
Hit rate of the full screen: of about 5,500 compounds, about 2,000 (36%) were called active. Roughly 18% stayed inconclusive and do not appear here. This is one part of the list.
measurement type: normalized growth
Please state the value as a number alone, without comment.

Cc1ccc(O)cc1    1.01
CNC1(C)C2CCC(C2)C1(C)C (centres undefined)    0.987

In plain terms, COc1cc2c(cc1OC)C(=O)C(CC1CCN(Cc3ccccc3)CC1)C2 (centres undefined) has a documented normalized growth of 1.13

The compound listed as CCC(C(=O)O)c1ccccc1 (centres undefined) has a reported normalized growth of 0.951

Lab note: measured normalized growth of `Cc1c(N(C)C)c(=O)n(-c2ccccc2)n1C` was 0.935

According to the records, this compound `CC(C)(N=NC(C)(C)C(=N)N)C(=N)N` displays normalized growth of 1.06

So, `COc1ccc(C(=O)c2ccccc2O)c(O)c1` ? Its normalized growth was 0.986

Notebook: `COc1ccc2cc1Oc1ccc(cc1)C[C@H]1c3cc(c(OC)cc3CCN1C)Oc1c(OC)c(OC)cc3c1[C@H](C2)N(C)CC3` , normalized growth read as 0.977

What the record says about `COc1ccc(-c2cc(=O)c3c(O)cc(OC)c(OC)c3o2)c(OC)c1` : normalized growth is 0.994

The compound `COc1ccc2c(c1)OC[C@@H](Cc1ccc(OC)c(OC)c1)[C@H]2O` showed normalized growth equal to 1.01

normalized growth for `S=C=NCc1ccccc1` is 0.208

According to the records, this compound CC(=O)OC1CC23CC24CCC(OC2OCC(O)C(O)C2O)C(C)(C)C4CCC3C2(C)CC3OC4(CC(C)C3C12C)OC(O)C1(C)OC41 (centres undefined) displays normalized growth of 1.05

Form field normalized growth, entry `COc1cc(O)c(C(=O)c2ccccc2)cc1O` : 0.994

Entry `COc1ccc2c(c1)OC[C@@H](Cc1ccc(OC)c(OC)c1)[C@@H]2O` — recorded normalized growth = 0.998

Query `COc1ccc(C(=O)c2ccccc2)c(O)c1` yields normalized growth of 0.857

// sample `CC(C)=CCc1c(O)cc2oc(C)cc(=O)c2c1O` , its normalized growth was 0.913

Lab book: normalized growth of `CC(C)[C@H](N)C(=O)OCCOCn1cnc2c(=O)[nH]c(N)nc21` noted as 1.04

Lab book: normalized growth of `CN=C(NC#N)NCCSCc1nc[nH]c1C` noted as 0.979

Looking up `OCc1ccccc1O[C@@H]1O[C@H](CO)[C@@H](O)[C@H](O)[C@H]1O` , I found its normalized growth recorded as 1.02

Looking up CC(=O)O[C@H]1C(=O)[C@@]2(C)C([C@H](OC(=O)c3ccccc3)[C@]3(O)C[C@H](O)C(C)=C1C3(C)C)[C@]1(OC(C)=O)CO[C@@H]1C[C@@H]2O (some centres undefined) , I found its normalized growth recorded as 0.968

normalized growth measured on `NC/C=C/C(=O)O` = 1.1

Entry under test: `O=C(O)COc1cc(Cl)c(Cl)cc1Cl` . Its normalized growth was 0.964

normalized growth reading for `CCOC(=O)c1ncn2c1CN(C)C(=O)c1cc(F)ccc1-2` : 1.03

Quick note, normalized growth for `Cc1cccc(Nc2cc(Cl)nc(SCC(=O)O)n2)c1C` landed at 1.02

###

# protocol summary: chemical genetic growth profiling, strain panel (AID 1159580)
# protocol conditions: S. cerevisiae deletion strains, growth OD, locus YHR200W, strain rpn10
The whole screen tested about 5,500 compounds, of which about 2,000 (36%) were called active. Roughly 18% stayed inconclusive and do not appear here. No stated cut-off is given here; in the data, active means normalized growth mostly below about 0.91 (no sharp cut-off); inconclusive means no clear call, values can overlap the other calls; inactive means mostly above about 0.92. This is one part of the list.
Would you mind answering with one of these outcomes? active, inactive

c1ccc(CN(CC2=NCCN2)c2ccccc2)cc1    inactive
CCCCOc1ccc(OCCCN2CCOCC2)cc1    inactive
Cc1ccc(C(=O)C(C)CN2CCCCC2)cc1 (stereo unspecified)    inactive
CCCCOc1ccc(C(=O)CCN2CCCCC2)cc1    active
CC(=O)O[C@H]1C(=O)[C@@]2(C)C([C@H](OC(=O)c3ccccc3)[C@]3(O)C[C@H](OC(=O)[C@H](O)[C@@H](NC(=O)c4ccccc4)c4ccccc4)C(C)=C1C3(C)C)[C@]1(OC(C)=O)CO[C@@H]1C[C@@H]2O (stereo partly specified)    active
C=C(C)/C=C1/C=CC(=O)C(C)=C1    active
c1ccc(CC2=NCCN2)cc1    active
CC(=O)OCC(CCn1cnc2cnc(N)nc21)COC(C)=O    inactive

Qu. Entry `O=C(O)c1cc(=O)c2cc(Cl)ccc2[nH]1` : call = ?
Ans. inactive

Qu. Please indicate how the test categorized `O=C(/C=C/C=C/c1ccc2c(c1)OCO2)N1CCCCC1` .
Ans. inactive

Qu. Each compound tested received a call. Report the one for `OC(CCN1CCCCC1)(c1ccccc1)c1ccccc1` .
Ans. inactive

###

# protocol summary: chemical genetic growth profiling, strain panel (AID 1159580);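 further: tested at 20 µM; growth read once vehicle control cultures reached saturation at 30 °C; 1 = growth at the plate median or of vehicle wells; lower values mean less growth of the strain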
# protocol conditions: S. cerevisiae deletion strains, growth OD, locus YNL298W, strain CLA4, active compounds read low
Among all 5,500 compounds or so, about 2,000 (36%) were called active. Not shown: some 18% with an inconclusive outcome. The list shows a part of the results.
Entries and their measured normalized growth follow.
# respond with the number and nothing more

So, CC(=O)O[C@H]1C(=O)[C@@]2(C)C([C@H](OC(=O)c3ccccc3)[C@]3(O)C[C@H](OC(=O)[C@H](O)[C@@H](NC(=O)c4ccccc4)c4ccccc4)C(C)=C1C3(C)C)[C@]1(OC(C)=O)CO[C@@H]1C[C@@H]2O (stereo partly drawn) ? Its normalized growth was 0.941

Record `COC(=O)COc1cc(Cl)c(Cl)cc1Cl` . Reported normalized growth: 0.994

For this compound ( CN1Cc2c(ccc3c2OCO3)C2C(O)Cc3cc4c(cc3C21)OCO4 (stereo not drawn) ), measured normalized growth is 1.03

Lab book: normalized growth of CCC(C(=O)O)c1ccccc1 (stereo not drawn) noted as 0.989

The recorded normalized growth for `C=CC1=C(C(=O)O)N2C(=O)[C@@H](NC(=O)/C(=N/O)c3csc(N)n3)[C@H]2SC1` is 0.982

normalized growth reported for this compound CN1CCc2cc3c(cc2C1O)OCO3 (stereo not drawn) : 0.956

Reported normalized growth ( NC[C@@H]1O[C@H](O[C@@H]2[C@@H](CO)OC(O[C@@H]3[C@@H](O)[C@H](N)C[C@H](N)[C@H]3OC3O[C@H](CN)[C@@H](O)[C@H](O)[C@H]3N)[C@@H]2O)[C@H](N)[C@@H](O)[C@@H]1O (stereo partly drawn) ) = 1.01

get_value(item= `COC(=O)COc1ccc(Cl)cc1Cl` , readout=normalized growth) returns 1.04

###

# protocol summary: chemical genetic growth profiling, strain panel (AID 1159580);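 further: tested at 20 µM; growth read once vehicle control cultures reached saturation at 30 °C; 1 = growth at the plate median or of vehicle wells; lower values mean less growth of the strain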
# protocol conditions: S. cerevisiae deletion strains, growth OD, locus YPL256C, strain CLN2
About 2,000 (36%) of roughly 5,500 compounds were called active. Roughly 18% stayed inconclusive and do not appear here. Rule as the data show it: active = normalized growth mostly below about 0.91 (no sharp cut-off); inconclusive = no clear call, values can overlap the other calls; inactive = mostly above about 0.92. This is one part of the list.
Select the correct class. Options are active, inactive and nothing else.

Field: example entries. Status: answers known.
O=[N+]([O-])c1cc(C(F)(F)F)ccc1-n1ccc(-c2cccs2)n1    inactive
Cc1c(Cl)cccc1NC(=S)N1CCCN(c2ccc(C(F)(F)F)cc2[N+](=O)[O-])CC1    inactive
O=C(CCN1CCCCC1)c1ccc(-c2ccccc2)cc1    active
O=C(C=C(O)c1ccc(Br)cc1)C(=O)Nc1ccccc1    active
Cc1c(Cl)cccc1NC(=S)N1CCCN(c2nc3ccc(Cl)cc3s2)CC1    active

Qu. What was the test verdict on `OC(CCN1CCCCC1)(c1ccccc1)c1ccccc1` ?
Ans. inactive

Qu. How was `CCCCOc1ccc(OCCCN2CCOCC2)cc1` classified in this test?
Ans. inactive

###

# protocol summary: chemical genetic growth profiling, strain panel (AID 1159580);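 further: tested at 20 µM; growth read once vehicle control cultures reached saturation at 30 °C; 1 = growth at the plate median or of vehicle wells; lower values mean less growth of the strain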
# protocol conditions: S. cerevisiae deletion strains, growth OD, locus YLL041C, strain sdh2, active compounds read low
About 2,000 (36%) of roughly 5,500 compounds were called active. About 18% were inconclusive and are not listed. This is one part of the list.
measurement type: normalized growth
// keep it numeric: no unit symbol after the value

COc1ccc(-c2coc3c(OC)c(OC)cc(O)c3c2=O)cc1    1.01

normalized growth for OCC(O)Cc1ccc2c(c1)OCO2 (stereo unspecified) is 0.994

# compound CCC(C(=O)O)c1ccccc1 (stereo unspecified) ; its normalized growth = 1

Record CC(=O)O[C@@](C)(CCC=C(C)C)C1CC=C(C)CC1 (stereo partly specified) , field normalized growth: 1.01

Form field normalized growth, entry `CC[C@H]1OC(=O)C[C@@H](O)[C@H](C)[C@@H](O[C@@H]2O[C@H](C)[C@@H](O[C@H]3C[C@@](C)(O)[C@@H](O)[C@H](C)O3)[C@H](N(C)C)[C@H]2O)[C@@H](CC=O)C[C@@H](C)C(=O)/C=C/C(C)=C/[C@@H]1CO[C@@H]1O[C@H](C)[C@@H](O)[C@@H](OC)[C@H]1OC` : 0.992

normalized growth measured on CC(=O)[C@H]1CCC2C3C[C@H](C)C4=CC(=O)CC[C@]4(C)C3[C@@H](O)C[C@@]21C (stereo partly specified) = 0.983

Per the records, this compound ( `C/C=C(/C(=C/C)c1ccc(O)cc1)c1ccc(O)cc1` ) has normalized growth equal to 0.965

Briefly, normalized growth measured for CCC1(C)CC(=O)NC1=O (stereo unspecified) : 0.995

The recorded normalized growth for `CC(C)[C@H](N)C(=O)OCCOCn1cnc2c(=O)[nH]c(N)nc21` is 1.03

Entry `Cc1ccc(O)cc1` ; normalized growth = 1.02

Summary for this compound, CCCCCC(=O)O[C@]1(C(C)=O)CCC2C3CCC4=CC(=O)CC[C@]4(C)C3CC[C@@]21C (stereo partly specified) : normalized growth is 0.99

Short answer for C=C1CC[C@H](O)C/C1=C/C=C1\CCC[C@]2(C)C([C@H](C)/C=C/[C@H](C)C(C)C)CC[C@@H]12 (stereo partly specified) : normalized growth was 1.03

Entry COc1ccc2c(c1)C1(C)CCC(=O)CC1CC2 (stereo unspecified) ; normalized growth = 1

normalized growth for `Cc1cccc(Nc2cc(Cl)nc(SCC(=O)O)n2)c1C` is 0.99
